# METHOD: Volume of distribution at steady state in Sprague-Dawley rat at 2 mg/kg, iv
# Type: ADME, organism-based
# Parameters: dose 2 mg/kg, route intravenous
# PARTICULARS: in vivo, read-out: Vdss
METRIC: Vd (L/kg)

{"columns": ["STRUCTURE", "REPORTED VALUE"],
 "data": [
  ["Cc1cc(-c2cc(NC(=O)c3ccc(OCCN4CCOCC4)cc3)[nH]n2)ccc1NC(=O)Nc1cc(C(C)(C)C)on1", 4.7],
  ["CN1CCN(Cc2ccc(C(=O)Nc3cc(-c4ccc(CNC(=O)Nc5cc(C(C)(C)C)on5)cc4)n[nH]3)cc2)CC1", 8],
  ["CC(C)(C)c1cc(NC(=O)NCc2ccc(-c3cc(NC(=O)c4ccc(OCCN5CCOCC5)cc4)[nH]n3)cc2)no1", 3.6],
  ["Cc1cc(-c2cc(NC(=O)c3ccc(CN4CCN(C)CC4)cc3)[nH]n2)ccc1NC(=O)Nc1cc(C(C)(C)C)on1", 10]
]}

---

Entries annotated with measured clearance
# METHOD: Plasma clearance in Sprague-Dawley rat at 2 mg/kg, iv
# Type: ADME, organism-based
# Design: dose 2 mg/kg, route intravenous
METRIC: clearance (mL/min/kg)

{"columns": ["STRUCTURE", "METRIC", "REPORTED VALUE"],
 "data": [
  ["CN1CCN(Cc2ccc(C(=O)Nc3cc(-c4ccc(CNC(=O)Nc5cc(C(C)(C)C)on5)cc4)n[nH]3)cc2)CC1", "clearance", 17.2],
  ["Cc1cc(-c2cc(NC(=O)c3ccc(OCCN4CCOCC4)cc3)[nH]n2)ccc1NC(=O)Nc1cc(C(C)(C)C)on1", "clearance", 13.9],
  ["CC(C)(C)c1cc(NC(=O)NCc2ccc(-c3cc(NC(=O)c4ccc(OCCN5CCOCC5)cc4)[nH]n3)cc2)no1", "clearance", 10.7],
  ["Cc1cc(-c2cc(NC(=O)c3ccc(CN4CCN(C)CC4)cc3)[nH]n2)ccc1NC(=O)Nc1cc(C(C)(C)C)on1", "clearance", 11.3]
]}

---

# ASSAY TARGET: Receptor-type tyrosine-protein kinase FLT3 (Homo sapiens)
# Sequence (P36888 whole entry): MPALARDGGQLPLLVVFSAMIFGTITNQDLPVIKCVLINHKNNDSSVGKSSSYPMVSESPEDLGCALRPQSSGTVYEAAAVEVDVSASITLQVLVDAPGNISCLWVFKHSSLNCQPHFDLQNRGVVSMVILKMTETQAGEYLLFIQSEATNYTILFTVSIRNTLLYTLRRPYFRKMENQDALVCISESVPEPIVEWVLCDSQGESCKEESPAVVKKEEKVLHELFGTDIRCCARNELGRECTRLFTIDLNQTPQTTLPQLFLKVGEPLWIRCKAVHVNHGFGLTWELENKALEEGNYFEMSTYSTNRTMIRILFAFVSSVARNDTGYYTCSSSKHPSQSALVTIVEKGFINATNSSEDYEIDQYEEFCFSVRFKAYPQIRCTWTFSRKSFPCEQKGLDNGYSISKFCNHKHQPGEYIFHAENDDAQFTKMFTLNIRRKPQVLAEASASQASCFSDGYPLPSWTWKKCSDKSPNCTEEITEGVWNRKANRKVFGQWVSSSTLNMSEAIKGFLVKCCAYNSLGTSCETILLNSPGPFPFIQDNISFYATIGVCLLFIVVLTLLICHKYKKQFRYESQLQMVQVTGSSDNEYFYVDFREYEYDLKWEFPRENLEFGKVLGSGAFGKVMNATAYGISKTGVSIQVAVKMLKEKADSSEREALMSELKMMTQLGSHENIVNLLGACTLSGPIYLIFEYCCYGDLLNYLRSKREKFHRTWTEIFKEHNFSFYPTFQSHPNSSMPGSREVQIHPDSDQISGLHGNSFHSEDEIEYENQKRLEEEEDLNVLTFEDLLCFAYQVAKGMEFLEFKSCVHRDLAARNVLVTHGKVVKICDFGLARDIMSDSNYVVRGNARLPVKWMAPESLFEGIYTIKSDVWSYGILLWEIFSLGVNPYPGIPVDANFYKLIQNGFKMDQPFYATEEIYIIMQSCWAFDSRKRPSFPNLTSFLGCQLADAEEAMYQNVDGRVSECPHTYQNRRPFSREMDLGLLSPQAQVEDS
# METHOD: biochemical
# Description: Inhibition of wild type GST tagged FLT3 kinase (567 to 993) (unknown origin) transfected in insect sf9 cells after 4 hrs by wallac counting analysis
pIC50: −log10 of the molar value.

{"columns": ["STRUCTURE", "pIC50"],
 "data": [
  ["Cc1nc(Nc2cc(-c3ccc(CNC(=O)Nc4cc(C(C)(C)C)on4)cc3)n[nH]2)cc(N2CCNCC2)n1", 7.59],
  ["CN1CCN(c2ccc(C(=O)Nc3cc(-c4ccc(NC(=O)Nc5ccccc5)cc4)n[nH]3)cc2)CC1", 7.89],
  ["Cc1cc(NC(=O)Nc2ccc(-c3cc(NC(=O)c4ccc(N5CCN(C)CC5)cc4)[nH]n3)cc2)no1", 8.22],
  ["CN1CCN(c2ccc(C(=O)Nc3cc(-c4ccc(NC(=O)N5CCCC5)cc4)n[nH]3)cc2)CC1", 7.15],
  ["CC(C)(C)c1cc(NC(=O)Nc2ccc(-c3cc(NC(=O)c4ccc(OCCN5CCCC5)cc4)[nH]n3)cc2)no1", 7.82],
  ["Cc1nc(Nc2cc(-c3ccc(CNC(=O)Nc4cc(C(C)(C)C)on4)cc3)n[nH]2)cc(N2CCN(CCO)CC2)n1", 7.02],
  ["CN1CCN(Cc2ccc(C(=O)Nc3cc(-c4ccc(CNC(=O)Nc5cc(C(C)(C)C)on5)cc4)n[nH]3)cc2)CC1", 8.40],
  ["Cc1cc(NC(=O)Nc2ccc(-c3cc(NC(=O)c4ccc(N5CCN(C)CC5)cc4)[nH]n3)cc2Cl)no1", 6.41],
  ["Cc1nc(Nc2cc(-c3ccc(NC(=O)Nc4ccccc4)cc3)n[nH]2)cc(N2CCN(C)CC2)n1", 6.55],
  ["CN1CCN(c2ccc(C(=O)Nc3cc(-c4ccc(NC(=O)NC5CC5)cc4)n[nH]3)cc2)CC1", 7.28],
  ["CN1CCN(Cc2ccc(C(=O)Nc3cc(-c4ccc(NC(=O)Nc5cc(C(C)(C)C)on5)cc4)n[nH]3)cc2)CC1", 8.10],
  ["CCNC(=O)Nc1ccc(-c2cc(NC(=O)c3ccc(N4CCN(C)CC4)cc3)[nH]n2)cc1", 7.03],
  ["CC(C)(C)c1cc(NC(=O)Nc2ccc(-c3cc(NC(=O)c4ccc(OCCN5CCOCC5)cc4)[nH]n3)cc2)no1", 7.72],
  ["CN1CCN(c2ccc(C(=O)Nc3cc(-c4ccc(NC(=O)Nc5cc(C(C)(C)C)on5)cc4)n[nH]3)cc2)CC1", 7.52],
  ["CN1CCN(c2ccc(C(=O)Nc3cc(-c4cccc(NS(=O)(=O)c5ccccc5)c4)n[nH]3)cc2)CC1", 7.96],
  ["Cc1nc(Nc2cc(-c3ccc(CNC(=O)Nc4cc(C)on4)cc3)n[nH]2)cc(N2CCN(CCO)CC2)n1", 7.77],
  ["Cc1cc(NC(=O)NCc2ccc(-c3cc(NC(=O)c4ccc(N5CCN(C)CC5)cc4)[nH]n3)cc2)no1", 7.89],
  ["Cc1cnc(NC(=O)Nc2ccc(-c3cc(NC(=O)c4ccc(N5CCN(C)CC5)cc4)[nH]n3)cc2)s1", 7.30],
  ["Cc1cc(-c2cc(NC(=O)c3ccc(OCCN4CCOCC4)cc3)[nH]n2)ccc1NC(=O)Nc1cc(C(C)(C)C)on1", 7.70],
  ["O=C(NCc1ccc(-c2cc(NC(=O)c3ccc(OCCN4CCOCC4)cc3)[nH]n2)cc1)Nc1ccccc1", 8.05],
  ["Cc1cc(NC(=O)Nc2ccc(-c3cc(NC(=O)c4ccc(N5CCN(C)CC5)cc4)[nH]n3)cc2C)no1", 8.05],
  ["CN1CCN(c2ccc(C(=O)Nc3cc(-c4ccc(NC(=O)Nc5ccccn5)cc4)n[nH]3)cc2)CC1", 7.40],
  ["Cc1nc(Nc2cc(-c3ccc(CNC(=O)Nc4cccc(Cl)c4)cc3)n[nH]2)cc(N2CCNCC2)n1", 7.59],
  ["O=C(NCc1ccc(-c2cc(NC(=O)c3ccc(OCCN4CCOCC4)cc3)[nH]n2)cc1)Nc1ccc(F)cc1", 7.18],
  ["Cc1nc(Nc2cc(-c3ccc(CNC(=O)Nc4cc(C(C)(C)C)on4)cc3)n[nH]2)cc(N2CCN(C)CC2)n1", 7.46],
  ["O=C(NCc1ccc(-c2cc(NC(=O)c3ccc(OCCN4CCOCC4)cc3)[nH]n2)cc1)Nc1ccc(Cl)cc1", 7.80],
  ["CN1CCN(c2ccc(C(=O)Nc3cc(-c4ccc(NC(=O)Nc5cccnc5)cc4)n[nH]3)cc2)CC1", 7.13],
  ["CN1CCN(Cc2ccc(C(=O)Nc3cc(-c4ccc(CNC(=O)Nc5ccccc5)cc4)n[nH]3)cc2)CC1", 7.66],
  ["CC(C)(C)c1cc(NC(=O)NCc2ccc(-c3cc(NC(=O)c4ccc(OCCN5CCOCC5)cc4)[nH]n3)cc2)no1", 7.74],
  ["Cc1nc(Nc2cc(-c3ccc(CNC(=O)Nc4cc(C)on4)cc3)n[nH]2)cc(N2CCN(C)CC2)n1", 7.68]
]}

Taken from ChEMBL document CHEMBL2384934.
